# Test system: J 744 (mouse macrophage)
# PROTOCOL_DESCRIPTION: Cytotoxicity test (Alamar blue), J 744 cells (Table 23)
# Assay type: cell-based
# CONDITIONS_USED: minimum drug concentration inhibiting Alamar blue color change; 3 hrs drug exposure, then 96 hrs incubation; J 744 mouse macrophage cells
# Description: Compounds were evaluated for their cytotoxic potential against two […] viz. […] Freshly grown cells were distributed in microtiter plates at a cell density of 10^5-10^6 cells/well and allowed to adhere and form monolayer by incubating the microtiter plate at 37° C. for 24 hrs. […] Cytotoxic effects of drugs were monitored through daily microscopic observation and by ascertaining the metabolic status through redox indicator Alamar blue. […]
MEASURED_QUANTITY: Cytotoxic concentration, J 744 Macrophage (µg/mL)
Quick note: give the figure in µg/mL, leave out the unit.

Req: Query: Cytotoxic concentration, J 744 Macrophage; subject: Cc1c(N2CC[C@H](N)[C@H](C)C2)c(F)cc2c(=O)c(C(=O)O)cn(C3CC3)c12 (relative stereo)
Resp: 1000

Req: Here is the next molecule: Cc1c(N2CC[C@@H](N)[C@H](C)C2)c(F)cc2c(=O)c(C(=O)O)cn(C3CC3)c12 (relative stereo)
Resp: 1000

Req: Here is the next molecule: Cc1c(N2CCC(N)C(C)(C)C2)c(F)cc2c(=O)c(C(=O)O)cn(C3CC3)c12 (racemic) [Compound 91]
Resp: 1000

Req: Here is the next molecule: N[C@@H]1[C@H]2CN(c3nc4c(cc3F)c(=O)c(C(=O)O)cn4-c3ccc(F)cc3F)C[C@@H]12 [Trovafloxacin, reference compound]
Resp: 500

Continuing:
Req: Query: Cytotoxic concentration, J 744 Macrophage; subject: Cc1c(N2CCC(N)C(C)(C)C2)c(F)cc2c(=O)c(C(=O)O)cn(C3CC3)c12 (single isomer, unassigned; (-)) [Compound 93]
Resp: 1000
